B1: HDV Ribozyme (parent)
chain: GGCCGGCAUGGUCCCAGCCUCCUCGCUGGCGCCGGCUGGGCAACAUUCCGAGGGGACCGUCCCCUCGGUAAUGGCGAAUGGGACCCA

# Variants of: B1
# assay_notes: self-cleavage, relative activity (ratio to wild type); higher = more cleavage; co-transcriptional
Field: class. Source value: self-cleavage. Ranges: LOW: < 0.2; MID: ≥ 0.2 and < 0.6; HIGH: ≥ 0.6

Consider the following illustrative entries.
variant | class_label
G10U C24A | MID
G67C A87C | HIGH
C4G G34C | HIGH
C26A A51U | HIGH

Input: Which bin, given its self-cleavage, does G68C A77G occupy?
Output: MID

Input: Which bin, given its self-cleavage, does A43G A78C occupy?
Output: LOW

Input: Lab note: sort G31A A87G into the matching self-cleavage band.
Output: MID
